assay-system: human NPY Y5 receptor (Homo sapiens, UniProt Q15761)
Construct: expressed in transfected cells
Sequence (Q15761 1-445): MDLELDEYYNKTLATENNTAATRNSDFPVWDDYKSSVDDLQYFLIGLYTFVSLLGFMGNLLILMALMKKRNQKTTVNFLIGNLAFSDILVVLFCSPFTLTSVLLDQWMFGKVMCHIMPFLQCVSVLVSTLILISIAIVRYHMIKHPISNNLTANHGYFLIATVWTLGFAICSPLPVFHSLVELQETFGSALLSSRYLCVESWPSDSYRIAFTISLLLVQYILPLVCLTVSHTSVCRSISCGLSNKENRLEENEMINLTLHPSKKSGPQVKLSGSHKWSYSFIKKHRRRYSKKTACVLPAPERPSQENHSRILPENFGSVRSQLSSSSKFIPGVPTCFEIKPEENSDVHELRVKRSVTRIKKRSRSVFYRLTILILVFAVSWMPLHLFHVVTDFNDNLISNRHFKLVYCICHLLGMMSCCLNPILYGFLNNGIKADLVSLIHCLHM
assay-protocol: cAMP production inhibitory activity in CHO cells
Assay type: cell-based
test-conditions: against 50 nM NPY inhibition of forskolin stimulated cAMP, CHO cells expressing human NPY Y5 receptor
pIC50: −log10 of the molar value.
experimental-endpoint: pIC50

[
  {
    "compound": "CSc1ccc(NC(=O)C2CCC(NS(=O)(=O)C(C)(C)C)CC2)cc1 (centres unmarked)",
    "experimental-endpoint": "pIC50",
    "value-measured": 7.99
  },
  {
    "compound": "CC(C)(C)S(=O)(=O)Nc1ccc(C(=O)Nc2ccc3sccc3c2)cc1",
    "experimental-endpoint": "pIC50",
    "value-measured": 8.06
  },
  {
    "compound": "CCOc1ccc(NC(=O)C2CCC(NS(=O)(=O)C(C)(C)C)CC2)cc1OCC (centres unmarked)",
    "experimental-endpoint": "pIC50",
    "value-measured": 8.17
  },
  {
    "compound": "CC(C)(C)S(=O)(=O)NCCCCC(=O)Nc1ccc2oc(=O)ccc2c1",
    "experimental-endpoint": "pIC50",
    "value-measured": 6.82
  },
  {
    "compound": "CCCCOc1cccc(CONC(=O)C2CCC(NS(=O)(=O)C(C)(C)C)CC2)c1 (centres unmarked)",
    "experimental-endpoint": "pIC50",
    "value-measured": 7.96
  }
]

###

assay-system: human NPY Y5 receptor (Homo sapiens)
Construct: expressed in transfected cells
Sequence (Q15761 1-445): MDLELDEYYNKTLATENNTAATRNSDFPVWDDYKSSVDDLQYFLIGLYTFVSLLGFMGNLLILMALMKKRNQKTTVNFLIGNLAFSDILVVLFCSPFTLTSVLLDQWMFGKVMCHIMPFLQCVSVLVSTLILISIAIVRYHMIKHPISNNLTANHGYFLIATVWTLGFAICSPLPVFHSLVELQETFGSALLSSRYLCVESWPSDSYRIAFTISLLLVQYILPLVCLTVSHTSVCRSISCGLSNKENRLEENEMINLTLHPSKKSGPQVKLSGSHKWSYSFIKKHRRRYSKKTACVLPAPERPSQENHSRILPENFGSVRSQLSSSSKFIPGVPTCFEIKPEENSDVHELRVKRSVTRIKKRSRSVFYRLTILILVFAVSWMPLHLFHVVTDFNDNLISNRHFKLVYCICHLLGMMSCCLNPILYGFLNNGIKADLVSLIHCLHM
assay-protocol: Affinity for NPY Y5 receptor ([125I] peptide YY binding, CHO cell membranes)
test-conditions: inhibition of specific [125I] peptide YY binding, membranes of CHO cells expressing NPY Y5 receptor
pIC50: −log10 of the molar value.
# maps each entry to its pIC50
experimental-endpoint: pIC50

[
  {
    "compound": "CC(C)(C)S(=O)(=O)NC1CCC(C(=O)Nc2ccc(C(=O)c3ccccc3)cc2)CC1 (stereo not shown) [Ia-53]",
    "assay-system": "human NPY Y5 receptor (Homo sapiens)",
    "value-measured": 9.66
  },
  {
    "compound": "CC(C)NS(=O)(=O)c1cccc(NC(=O)C2CCC(NS(=O)(=O)C(C)(C)C)CC2)c1 (stereo not shown) [Ia-181]",
    "assay-system": "human NPY Y5 receptor (Homo sapiens)",
    "value-measured": 8.11
  },
  {
    "compound": "CC(C)(C)S(=O)(=O)NC1CCC(C(=O)Nc2ccc(Oc3ccccc3)nc2)CC1 (stereo not shown) [Compound I-168]",
    "assay-system": "human NPY Y5 receptor (Homo sapiens)",
    "value-measured": 8.68
  },
  {
    "compound": "CC(C)(C)S(=O)(=O)Nc1ccc(C(=O)Nc2ccc(OC3CCCC3)cc2)cc1 [Ia-212]",
    "assay-system": "human NPY Y5 receptor (Homo sapiens)",
    "value-measured": 9.28
  }
]

###

assay-system: human NPY Y5 receptor (Homo sapiens)
Construct: expressed in transfected cells
Sequence (Q15761 1-445): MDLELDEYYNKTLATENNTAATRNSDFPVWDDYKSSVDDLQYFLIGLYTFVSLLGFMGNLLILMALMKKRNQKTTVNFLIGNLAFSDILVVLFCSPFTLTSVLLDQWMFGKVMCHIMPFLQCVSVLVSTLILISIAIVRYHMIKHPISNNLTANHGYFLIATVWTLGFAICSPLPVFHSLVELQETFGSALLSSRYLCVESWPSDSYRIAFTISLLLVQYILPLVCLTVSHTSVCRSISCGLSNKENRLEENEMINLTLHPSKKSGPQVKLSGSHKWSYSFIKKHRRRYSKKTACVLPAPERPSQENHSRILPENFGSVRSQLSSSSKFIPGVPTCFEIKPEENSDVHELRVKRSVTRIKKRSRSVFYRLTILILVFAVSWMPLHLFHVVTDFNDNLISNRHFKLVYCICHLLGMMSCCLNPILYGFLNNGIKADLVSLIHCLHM
assay-protocol: Affinity for NPY Y5 receptor ([125I] peptide YY binding, CHO cell membranes)
test-conditions: inhibition of specific [125I] peptide YY binding, membranes of CHO cells expressing NPY Y5 receptor
pIC50: −log10 of the molar value.

[
  {
    "compound": "CC(C)(C)S(=O)(=O)NC1CCC(C(=O)Nc2ccc3c(c2)OCCO3)CC1 (centres unmarked)",
    "pIC50": 8.17
  },
  {
    "compound": "COc1ccc(NC(=O)C2CCC(NS(=O)(=O)C(C)(C)C)CC2)cc1Cl (centres unmarked)",
    "pIC50": 8.82
  },
  {
    "compound": "CN(C)c1cccc(NC(=O)C2CCC(NS(=O)(=O)C(C)(C)C)CC2)c1 (centres unmarked)",
    "pIC50": 8.42
  },
  {
    "compound": "CC(C)(C)S(=O)(=O)NC1CCC(C(=O)Nc2ccc(I)cc2)CC1 (centres unmarked)",
    "pIC50": 9.22
  },
  {
    "compound": "CC(C)S(=O)(=O)NC1CCC(C(=O)Nc2ccc(OC(C)(C)C)cc2)CC1 (centres unmarked)",
    "pIC50": 8.92
  },
  {
    "compound": "CCn1c2ccccc2c2cc(NC(=O)C3CCC(NS(=O)(=O)C(C)(C)C)CC3)ccc21 (centres unmarked)",
    "pIC50": 9.10
  },
  {
    "compound": "CC(C)(C)S(=O)(=O)N[C@H]1CC[C@H](C(=O)Nc2ccc3c(c2)C(=O)N(c2ccccc2)C3=O)CC1",
    "pIC50": 9.09
  },
  {
    "compound": "COc1ccc(NC(=O)C2CCC(NS(=O)(=O)C(C)(C)C)CC2)cc1F (centres unmarked)",
    "pIC50": 8.80
  }
]

###

assay-system: NPY Y1 receptor (Homo sapiens)
Construct: membranes prepared from Y1-expression cells (human neuroblastoma, SK-N-MC); endogenous in cells
Sequence (P25929 whole entry): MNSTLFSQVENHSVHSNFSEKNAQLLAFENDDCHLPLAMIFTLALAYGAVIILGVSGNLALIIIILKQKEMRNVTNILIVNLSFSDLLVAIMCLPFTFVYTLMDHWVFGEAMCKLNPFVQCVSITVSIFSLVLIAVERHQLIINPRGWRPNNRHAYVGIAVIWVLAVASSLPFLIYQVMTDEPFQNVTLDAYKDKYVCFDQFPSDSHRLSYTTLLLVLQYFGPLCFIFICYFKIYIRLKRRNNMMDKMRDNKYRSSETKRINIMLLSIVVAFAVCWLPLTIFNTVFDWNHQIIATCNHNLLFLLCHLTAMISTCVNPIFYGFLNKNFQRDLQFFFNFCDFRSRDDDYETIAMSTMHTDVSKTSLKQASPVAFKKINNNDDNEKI
assay-protocol: Affinity for NPY Y1 receptor (membranes from SK-N-MC cells)
test-conditions: membranes from Y1-expression cells (human neuroblastoma, SK-N-MC); read-out: Binding IC50 for NPY Y1 receptor

[
  {
    "compound": "COc1ccc(NC(=O)C2CCC(NS(=O)(=O)C(C)(C)C)CC2)cc1 (stereo not drawn)",
    "IC50": "≥ 100 µM"
  },
  {
    "compound": "CC(C)(C)S(=O)(=O)NC1CCC(C(=O)Nc2ccc(C(F)(F)F)cn2)CC1 (stereo not drawn)",
    "IC50": "≥ 100 µM"
  },
  {
    "compound": "C[C@@H]1CN(c2ccc(NC(=O)C3CCC(NS(=O)(=O)C(C)(C)C)CC3)c(F)c2F)C[C@H](C)O1 (stereo partly drawn)",
    "IC50": "≥ 100 µM"
  },
  {
    "compound": "COc1ccc(NC(=O)C2CCC(NS(=O)(=O)C(C)(C)C)CC2)cc1OC (stereo not drawn)",
    "IC50": "≥ 100 µM"
  },
  {
    "compound": "CC(C)S(=O)(=O)NC1CCC(C(=O)Nc2cccc(OC3CCCC3)c2)CC1 (stereo not drawn)",
    "IC50": "≥ 100 µM"
  },
  {
    "compound": "Cc1cc(N2C[C@@H](C)O[C@@H](C)C2)ccc1NC(=O)C1CCC(NS(=O)(=O)C(C)(C)C)CC1 (stereo partly drawn)",
    "IC50": "≥ 100 µM"
  },
  {
    "compound": "CC(C)(C)S(=O)(=O)NC1CCC(C(=O)Nc2ccc(F)cc2)CC1 (stereo not drawn)",
    "IC50": "≥ 100 µM"
  },
  {
    "compound": "COc1ccc(NC(=O)C2CCC(NS(=O)(=O)C(C)(C)C)CC2)cc1Cl (stereo not drawn)",
    "IC50": "≥ 100 µM"
  },
  {
    "compound": "CC(C)S(=O)(=O)NC1CCC(C(=O)Nc2ccc(N3C[C@@H](C)O[C@@H](C)C3)cc2)CC1 (stereo partly drawn)",
    "IC50": "≥ 100 µM"
  }
]
